Value source: the supplement of paper PMC11061612

System: EMC-BAC-2 (Non-Small Cell Lung Carcinoma);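 note: after 72 h of two-drug dosing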
experiment.summary: Bliss excess, mean over the matrix (fraction); higher = more synergy
Would you please tag the item criterion met when its Bliss excess is -0.003 or above, and criterion not met when it is below?

compound	system.under.test	class
C=CCn1c(=O)c2cnc(Nc3ccc(N4CCN(C)CC4)cc3)nc2n1-c1cccc(C(C)(C)O)n1 [AZD1775] + C1CN(CCC1(C(=O)N[C@@H](CCO)C2=CC=C(C=C2)Cl)N)C3=NC=NC4=C3C=CN4 [Capivasertib] (first compound max 3 µM, partner max 3 µM)	EMC-BAC-2 (Non-Small Cell Lung Carcinoma)	criterion met
CCN(CCO)CCCOc1ccc2c(Nc3cc(CC(=O)Nc4cccc(F)c4)[nH]n3)ncnc2c1 [AZD2811] + C[C@@H]1COCCN1C2=NC(=NC(=C2)C3(CC3)[S@](=N)(=O)C)C4=C5C=CNC5=NC=C4 [AZD6738] (first compound max 1 µM, 7x7, partner max 10 µM)	EMC-BAC-2 (Non-Small Cell Lung Carcinoma)	criterion not met
Cc1cc2ncnn2cc1Nc1ncc2c(n1)n(C1CCOCC1)c(=O)n2C [AZD7648] + CCN(CCO)CCCOc1ccc2c(Nc3cc(CC(=O)Nc4cccc(F)c4)[nH]n3)ncnc2c1 [AZD2811] (first compound max 10 µM, 7x7, partner max 1 µM)	EMC-BAC-2 (Non-Small Cell Lung Carcinoma)	criterion met
C[C@@H](c1ccc2nccn2c1)n1nnc2ncc(-c3cnn(C)c3)nc21 [Savolitinib] + CN(CC[C@H](CSC1=CC=CC=C1)NC2=C(C=C(C=C2)S(=O)(=O)NC(=O)C3=CC=C(C=C3)N4CCC(CC4)[C@H](C5=CC=CC=C5C6=CC=C(C=C6)Cl)O)S(=O)(=O)C(F)(F)F)CCO [AZD4320] (first compound max 1 µM, 7x7, partner max 1 µM)	EMC-BAC-2 (Non-Small Cell Lung Carcinoma)	criterion not met
CC1(C)CCC(CN2CCN(c3ccc(C(=O)NS(=O)(=O)c4ccc(NCC5CCOCC5)c([N+](=O)[O-])c4)c(Oc4cnc5[nH]ccc5c4)c3)CC2)=C(c2ccc(Cl)cc2)C1 [Venetoclax] + COc1cc(Nc2ncc3c(n2)-c2ccc(Cl)cc2C(c2c(F)cccc2OC)=NC3)ccc1C(=O)O [Alisertib] (first compound max 1 µM, 7x7, partner max 10 µM)	EMC-BAC-2 (Non-Small Cell Lung Carcinoma)	criterion not met
NC1(C(=O)N[C@@H](CCO)c2ccc(Cl)cc2)CCN(c2ncnc3[nH]ccc23)CC1 [Capivasertib] + Cn1cnc2c(F)c(Nc3ccc(Br)cc3Cl)c(C(=O)NOCCO)cc21 [Selumetinib] (first compound max 10 µM, 7x7, partner max 10 µM)	EMC-BAC-2 (Non-Small Cell Lung Carcinoma)	criterion not met
CN(CCO)CC[C@H](CSc1ccccc1)Nc1ccc(S(=O)(=O)NC(=O)c2ccc(N3CCC([C@@H](O)c4ccccc4-c4ccc(Cl)cc4)CC3)cc2)cc1S(=O)(=O)C(F)(F)F [AZD4320] + Cc1cc2ncnn2cc1Nc1ncc2c(n1)n(C1CCOCC1)c(=O)n2C [AZD7648] (first compound max 1 µM, 7x7, partner max 10 µM)	EMC-BAC-2 (Non-Small Cell Lung Carcinoma)	criterion not met
